Item-by-item account of pIC50
- Tested on: Plasmodium falciparum
- Test details: Antiplasmodial activity against atovaquone-resistant Plasmodium falciparum FCR3 after 48 hrs by FACS analysis
- Assay type: functional, organism-based
- Measurement context: FCR3, 48 h
pIC50: −log10 of the molar value.
Property name: pIC50

| Compound | Assayed target | Property name | Experimental result |
| --- | --- | --- | --- |
| N#Cc1ncc(Br)c(N(NC(=O)C2CCC3(CC2)OOC2(OO3)C3CC4CC(C3)CC2C4)C2CCCCC2)n1 (stereo not given) | Plasmodium falciparum | pIC50 | 7.09 |
| CC(C)CN(NC(=O)C1CCC2(CC1)OOC1(OO2)C2CC3CC(C2)CC1C3)c1cc(Cl)nc(C#N)n1 (stereo not given) | Plasmodium falciparum | pIC50 | 7.42 |
| CC(C)CN(NC(=O)C1CCC2(CC1)OOC1(OO2)C2CC3CC(C2)CC1C3)c1ccnc(C#N)n1 (stereo not given) | Plasmodium falciparum | pIC50 | 7.52 |
| C[C@@H]1CC[C@H]2[C@@H](C)C(=O)O[C@@H]3O[C@@]4(C)CC[C@@H]1[C@]32OO4 | Plasmodium falciparum | pIC50 | 8.11 |
| CC(C)CN(NC(=O)C1CCC2(CC1)OOC1(OO2)C2CC3CC(C2)CC1C3)c1nc(C#N)ncc1Cl (stereo not given) | Plasmodium falciparum | pIC50 | 7.27 |
